Values compiled from patent US9012651B2.

# Target under test: human TRPV3 receptors (Homo sapiens (Human), UniProt Q8NET8)
# Sequence (Q8NET8 whole entry): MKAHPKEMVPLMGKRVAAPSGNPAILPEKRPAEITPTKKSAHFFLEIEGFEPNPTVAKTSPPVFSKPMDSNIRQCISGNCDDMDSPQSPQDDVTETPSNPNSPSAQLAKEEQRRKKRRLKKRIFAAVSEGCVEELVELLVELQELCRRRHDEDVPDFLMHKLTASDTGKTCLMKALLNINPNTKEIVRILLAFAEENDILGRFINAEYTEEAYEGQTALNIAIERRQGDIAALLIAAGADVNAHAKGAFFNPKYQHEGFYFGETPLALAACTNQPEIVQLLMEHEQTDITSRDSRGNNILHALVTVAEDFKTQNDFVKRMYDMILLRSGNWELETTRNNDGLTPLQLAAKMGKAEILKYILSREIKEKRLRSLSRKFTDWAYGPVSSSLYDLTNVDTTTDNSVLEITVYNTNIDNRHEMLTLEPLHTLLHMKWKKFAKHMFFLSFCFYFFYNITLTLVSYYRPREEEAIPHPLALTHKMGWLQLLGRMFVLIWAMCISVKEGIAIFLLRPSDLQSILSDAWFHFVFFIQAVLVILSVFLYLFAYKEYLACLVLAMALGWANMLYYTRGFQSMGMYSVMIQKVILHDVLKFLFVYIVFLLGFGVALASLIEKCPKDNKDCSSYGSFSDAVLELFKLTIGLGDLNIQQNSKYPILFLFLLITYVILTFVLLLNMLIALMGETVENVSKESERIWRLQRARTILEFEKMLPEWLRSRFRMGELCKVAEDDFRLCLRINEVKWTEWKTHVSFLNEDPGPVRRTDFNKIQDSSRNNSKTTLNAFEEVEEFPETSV
# Run description: Calcium flux assay (FLIPR TETRA), inhibition of the 2-APB response
# Applied conditions: recombinant HEK293 cells stably expressing TRPV3, Calcium-4 dye, 2-APB at its EC80
pIC50: −log10 of the molar value.
Parameter: pIC50

Recorded results for 2 molecules are shown here.
>>> df
                                  molecule  reported
0        CC(C)[C@H](CO)NCc1cccc(N2CCCC2)n1      5.42
1  CC(C)[C@H](CO)NCc1nc(-c2cccc(F)c2)ccc1F      6.09

I. COCC(CO)NCc1nc(-c2ccc(C(F)(F)F)cc2)ccc1F (centres unmarked)
II. OCC1(NCc2cccc(-c3ccc(C(F)(F)F)cc3C(F)(F)F)n2)CCCC1
Enquiry: Problem: Given the entries I and II , determine which has the lower reported pIC50. In your reply, give the label of the chosen option.
Return: I
(I: 5.43, II: 6.24)

----------
# Target under test: human TRPV3 receptors (Homo sapiens (Human))
# Run description: Calcium flux assay (FLIPR TETRA), inhibition of the 2-APB response
# Type: cell-based
# Applied conditions: recombinant HEK293 cells stably expressing TRPV3, Calcium-4 dye, 2-APB at its EC80
Parameter: IC50 (nM)

Look over these answered cases.
                                   compound  reported
0  CC(C)[C@H](CO)NCc1nc(N2CCc3c(cccc3C(F)(F)F)C2)ccc1F       350
1  COc1ccc(C#Cc2ccc(F)c(CN[C@@H](CO)C(C)C)n2)cc1      1110
2  CC(c1ccccc1)c1ccc(F)c(CN[C@@H](CO)C(C)C)n1 (stereo partly drawn)      1440
3  OCC1(NCc2nc(-c3ccc(C(F)(F)F)cc3)ccc2F)CCC1       700
4  CC(C)[C@H](CO)NCc1nc(N2Cc3cccc(Cl)c3C2)ccc1F       340
5  CC(C)[C@H](CO)NCc1nc(-c2cccc(S(=O)(=O)N3CCCC3)c2)ccc1F      1080
6  OC[C@H](NCc1nc(-c2ccc(OCC(F)(F)F)nc2)ccc1F)C1CC1      1600
7  CC(O)C(C)NCc1nc(-c2ccc(C(F)(F)F)cc2)ccc1F (stereo not drawn)       300
8  OC[C@H](NCc1nc(-c2ccc(C(F)(F)F)cc2)ccc1F)C1CC1       410
9  COc1cc(-c2ccc(F)c(CN[C@@H](CO)C(C)C)n2)cc(F)c1F       260

I. CC(C)[C@H](CO)NCc1nc(C#Cc2ccccc2)ccc1F
II. CC(C)[C@H](CO)NCc1nc(C2CCC(F)(F)CC2)ccc1F
III. C=C(c1ccccc1)c1ccc(F)c(CN[C@@H](CO)C(C)C)n1
Enquiry: Sort by IC50, descending. A complete answer lists every label in the requested sequence.
Return: III, II, I

P. CC(C)(CO)CNCc1cccc(-c2ccc(C(F)(F)F)cc2)n1
Q. O[C@@H]1CCCC[C@@H]1NCc1nc(-c2ccc(C(F)(F)F)nc2)ccc1F
R. CCN(CC)S(=O)(=O)c1cccc(-c2ccc(F)c(CN[C@@H](CO)C(C)C)n2)c1
Enquiry: Order each entry by recorded IC50, climbing from the minimum. Rank the items, then write their labels in that order.
Return: R, P, Q
(R: 500 nM, P: 2600 nM, Q: 8550 nM)

a. CC(C)[C@H](CO)NCc1nc(-c2cnc(N(C)C)nc2)ccc1F
b. CC(C)[C@H](CO)NCc1nc(N2Cc3cccc(F)c3C2)ccc1F
Enquiry: When a and b are compared, which has the higher number for IC50? Answer = label.
Return: a
